IC50 overview
measurement_target: Full length human CDC7 protein co-expressed with DBF4 (Homo sapiens, UniProt O00311)
Sequence (O00311 whole entry): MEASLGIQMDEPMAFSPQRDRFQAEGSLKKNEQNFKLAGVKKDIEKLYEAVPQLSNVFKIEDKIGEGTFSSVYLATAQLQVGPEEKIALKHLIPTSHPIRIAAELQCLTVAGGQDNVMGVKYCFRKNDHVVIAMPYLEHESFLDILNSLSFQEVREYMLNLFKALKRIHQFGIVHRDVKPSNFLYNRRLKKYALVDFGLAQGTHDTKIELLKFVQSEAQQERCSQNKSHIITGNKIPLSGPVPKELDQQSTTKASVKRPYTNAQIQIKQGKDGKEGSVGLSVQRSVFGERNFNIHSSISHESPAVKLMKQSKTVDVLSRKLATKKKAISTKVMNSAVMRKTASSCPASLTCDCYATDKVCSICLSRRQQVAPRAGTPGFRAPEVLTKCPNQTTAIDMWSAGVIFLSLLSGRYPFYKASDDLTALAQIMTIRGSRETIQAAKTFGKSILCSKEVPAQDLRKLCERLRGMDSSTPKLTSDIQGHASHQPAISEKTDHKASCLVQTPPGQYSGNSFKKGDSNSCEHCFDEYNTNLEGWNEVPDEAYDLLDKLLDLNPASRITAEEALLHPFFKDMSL
Sequence (Q9UBU7 whole entry partner): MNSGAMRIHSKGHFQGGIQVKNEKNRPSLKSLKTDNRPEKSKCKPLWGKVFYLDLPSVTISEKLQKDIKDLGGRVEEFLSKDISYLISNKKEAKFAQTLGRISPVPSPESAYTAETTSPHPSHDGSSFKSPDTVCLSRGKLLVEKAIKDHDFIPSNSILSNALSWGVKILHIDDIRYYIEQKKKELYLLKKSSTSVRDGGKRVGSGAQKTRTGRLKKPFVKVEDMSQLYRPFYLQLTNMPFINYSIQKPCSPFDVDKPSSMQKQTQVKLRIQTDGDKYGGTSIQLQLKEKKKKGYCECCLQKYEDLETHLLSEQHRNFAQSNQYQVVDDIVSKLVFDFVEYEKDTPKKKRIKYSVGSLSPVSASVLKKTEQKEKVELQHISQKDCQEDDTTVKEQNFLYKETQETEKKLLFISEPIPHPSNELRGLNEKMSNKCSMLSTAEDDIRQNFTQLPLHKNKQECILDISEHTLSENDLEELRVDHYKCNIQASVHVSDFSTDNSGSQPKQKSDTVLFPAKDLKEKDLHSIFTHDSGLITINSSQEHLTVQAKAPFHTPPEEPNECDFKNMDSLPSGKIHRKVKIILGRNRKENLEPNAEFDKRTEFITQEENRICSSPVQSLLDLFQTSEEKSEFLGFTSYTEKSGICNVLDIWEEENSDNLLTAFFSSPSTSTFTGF
observation_type: IC50

[[record]]
compound = "CC(C)(C)[C@]1(O)COCc2c1[nH]c(=O)c1sc(-c3cn[nH]c3)cc21 (single isomer, unassigned)"
observation_type = "IC50"
reported_measurement = "1 to 10 nM"

[[record]]
compound = "CN(C)C1(C)COCc2c1[nH]c(=O)c1sc(-c3cn[nH]c3)cc21 (single isomer, unassigned) [Compound 83]"
observation_type = "IC50"
reported_measurement = "1 to 10 nM"

[[record]]
compound = "CC(F)(F)C1(O)COCc2c1[nH]c(=O)c1sc(-c3cn[nH]c3)cc21 (single isomer, unassigned) [Compound 96]"
observation_type = "IC50"
reported_measurement = "≤ 1 nM"

[[record]]
compound = "CCC1(O)COCc2c1[nH]c(=O)c1sc(-c3cn[nH]c3)cc21 (single isomer, unassigned)"
observation_type = "IC50"
reported_measurement = "> 10 nM"

[[record]]
compound = "O=c1[nH]c2c(c3cc(-c4cn[nH]c4)sc13)CCC[C@H]2N1CCC(F)(F)C1 (single isomer, unassigned)"
observation_type = "IC50"
reported_measurement = "≤ 1 nM"

[[record]]
compound = "CC[C@H](C)[C@]1(O)COCc2c1[nH]c(=O)c1sc(-c3cn[nH]c3)cc21 (single isomer, unassigned)"
observation_type = "IC50"
reported_measurement = "≤ 1 nM"

[[record]]
compound = "CC(C)(C)C1(O)COCc2c1[nH]c(=O)c1sc(-c3ncncc3Cl)cc21 (single isomer, unassigned) [Compound 63]"
observation_type = "IC50"
reported_measurement = "≤ 1 nM"

[[record]]
compound = "CC(C)(O)C1(C)OCCc2c1[nH]c(=O)c1sc(-c3cn[nH]c3)cc21 (single isomer, unassigned)"
observation_type = "IC50"
reported_measurement = "> 10 nM"

[[record]]
compound = "CC(C)C1(O)COCc2c1[nH]c(=O)c1sc(-c3ccns3)cc21 (single isomer, unassigned) [Compound 47]"
observation_type = "IC50"
reported_measurement = "> 10 nM"

[[record]]
compound = "CC(C)C1(O)COCc2c1[nH]c(=O)c1sc(-c3ccns3)cc21 (single isomer, unassigned) [Compound 46]"
observation_type = "IC50"
reported_measurement = "≤ 1 nM"

[[record]]
compound = "CC(C)(C)[C@]1(O)COCc2c1[nH]c(=O)c1sc(-c3ccncc3)cc21 (single isomer, unassigned)"
observation_type = "IC50"
reported_measurement = "> 10 nM"

[[record]]
compound = "CC(C)(C)C1(O)COCc2c1[nH]c(=O)c1sc(-c3c[nH]nc3F)cc21 (single isomer, unassigned) [Compound 65]"
observation_type = "IC50"
reported_measurement = "> 10 nM"

[[record]]
compound = "C[C@]1(CO)CC(F)(F)Cc2c1[nH]c(=O)c1sc(-c3cn[nH]c3)cc21 (single isomer, unassigned)"
observation_type = "IC50"
reported_measurement = "1 to 10 nM"

[[record]]
compound = "CCC(C)C1(O)COCc2c1[nH]c(=O)c1sc(-c3cn[nH]c3)cc21 (single isomer, unassigned)"
observation_type = "IC50"
reported_measurement = "> 10 nM"


----------
As an illustration, consider measured IC50 for compounds on Full length human CDC7 protein co-expressed with DBF4 (Homo sapiens).
observation_type: IC50

[[record]]
compound = "O=c1[nH]c2c(c3cc(-c4cn[nH]c4)sc13)COCC2(O)C(F)F (single isomer, unassigned) [Compound 43]"
observation_type = "IC50"
reported_measurement = "1 to 10 nM"

[[record]]
compound = "Cn1nccc1-c1cc2c3c([nH]c(=O)c2s1)C(O)(C(C)(C)C)COC3 (single isomer, unassigned) [Compound 90]"
observation_type = "IC50"
reported_measurement = "> 10 nM"

[[record]]
compound = "CC(C)(C)C1(O)COCc2c1[nH]c(=O)c1sc(-c3c[nH]nc3F)cc21 (single isomer, unassigned) [Compound 66]"
observation_type = "IC50"
reported_measurement = "≤ 1 nM"

[[record]]
compound = "Cc1n[nH]cc1-c1cc2c3c([nH]c(=O)c2s1)C(O)(C(F)(F)F)COC3 (single isomer, unassigned) [Compound 32]"
observation_type = "IC50"
reported_measurement = "≤ 1 nM"

[[record]]
compound = "CN(C)C1(C)COCc2c1[nH]c(=O)c1sc(-c3cn[nH]c3)cc21 (single isomer, unassigned) [Compound 82]"
observation_type = "IC50"
reported_measurement = "1 to 10 nM"

[[record]]
compound = "CC(C)(C)C1(O)COCc2c1[nH]c(=O)c1sc(-c3ncncc3Cl)cc21 (single isomer, unassigned) [Compound 64]"
observation_type = "IC50"
reported_measurement = "1 to 10 nM"


----------
pIC50: −log10 of the molar value.
Observed pIC50, system Full length human CDC7 protein co-expressed with DBF4 (Homo sapiens, UniProt O00311).
observation_type: pIC50

[[record]]
molecule = "CCC1(O)CC(F)(F)Cc2c1[nH]c(=O)c1sc(-c3cn[nH]c3)cc21 (single isomer, unassigned) [Compound 50]"
measurement_target = "Full length human CDC7 protein co-expressed with DBF4 (Homo sapiens, UniProt O00311)"
reported_measurement = "8.00 to 9.00"

[[record]]
molecule = "O=c1[nH]c2c(c3cc(-c4cn[nH]c4)sc13)C1CCC2(O)CC1"
measurement_target = "Full length human CDC7 protein co-expressed with DBF4 (Homo sapiens, UniProt O00311)"
reported_measurement = "≥ 9.00"

[[record]]
molecule = "Cc1cc(-c2cc3c4c([nH]c(=O)c3s2)C(O)(C(C)(C)C)COC4)ccn1 (single isomer, unassigned)"
measurement_target = "Full length human CDC7 protein co-expressed with DBF4 (Homo sapiens, UniProt O00311)"
reported_measurement = "< 8.00"

[[record]]
molecule = "CC(F)(F)C1(O)COCc2c1[nH]c(=O)c1sc(-c3cn[nH]c3)cc21 (single isomer, unassigned) [Compound 95]"
measurement_target = "Full length human CDC7 protein co-expressed with DBF4 (Homo sapiens, UniProt O00311)"
reported_measurement = "8.00 to 9.00"


----------
measurement_target: Full length human CDC7 protein co-expressed with DBF4 (Homo sapiens, UniProt O00311)
observation_type: IC50

[[record]]
compound = "O=c1[nH]c2c(c3cc(-c4cn[nH]c4)sc13)COCC2(O)C(F)(F)F (single isomer, unassigned) [Compound 29]"
measurement_target = "Full length human CDC7 protein co-expressed with DBF4 (Homo sapiens, UniProt O00311)"
observation_type = "IC50"
reported_measurement = "1 to 10 nM"

[[record]]
compound = "Cc1cnccc1-c1cc2c3c([nH]c(=O)c2s1)C(O)(C(C)(C)C)COC3 (single isomer, unassigned) [Compound 69]"
measurement_target = "Full length human CDC7 protein co-expressed with DBF4 (Homo sapiens, UniProt O00311)"
observation_type = "IC50"
reported_measurement = "≤ 1 nM"

[[record]]
compound = "CC1(C)COCc2c1[nH]c(=O)c1sc(-c3cn[nH]c3)cc21 [Compound 58]"
measurement_target = "Full length human CDC7 protein co-expressed with DBF4 (Homo sapiens, UniProt O00311)"
observation_type = "IC50"
reported_measurement = "1 to 10 nM"

[[record]]
compound = "O=c1[nH]c2c(c3cc(-c4ccncc4)sc13)C1CCC2(O)CC1 [Compound 9]"
measurement_target = "Full length human CDC7 protein co-expressed with DBF4 (Homo sapiens, UniProt O00311)"
observation_type = "IC50"
reported_measurement = "≤ 1 nM"

[[record]]
compound = "CCC1(O)CC(F)(F)Cc2c1[nH]c(=O)c1sc(-c3cn[nH]c3)cc21 (single isomer, unassigned) [Compound 51]"
measurement_target = "Full length human CDC7 protein co-expressed with DBF4 (Homo sapiens, UniProt O00311)"
observation_type = "IC50"
reported_measurement = "≤ 1 nM"

[[record]]
compound = "CC(C)C1(O)COCc2c1[nH]c(=O)c1sc(-c3c[nH]nc3F)cc21 (single isomer, unassigned) [Compound 27]"
measurement_target = "Full length human CDC7 protein co-expressed with DBF4 (Homo sapiens, UniProt O00311)"
observation_type = "IC50"
reported_measurement = "≤ 1 nM"

[[record]]
compound = "COC12CCC(CC1)c1c2[nH]c(=O)c2sc(-c3cn[nH]c3)cc12 [Compound 7]"
measurement_target = "Full length human CDC7 protein co-expressed with DBF4 (Homo sapiens, UniProt O00311)"
observation_type = "IC50"
reported_measurement = "≤ 1 nM"

[[record]]
compound = "O=c1[nH]c2c(c3cc(-c4cn[nH]c4)sc13)COCC2(O)C1CCCC1 (single isomer, unassigned) [Compound 78]"
measurement_target = "Full length human CDC7 protein co-expressed with DBF4 (Homo sapiens, UniProt O00311)"
observation_type = "IC50"
reported_measurement = "≤ 1 nM"

[[record]]
compound = "CC(C)(C)C1(O)COCc2c1[nH]c(=O)c1sc(-c3ccnnc3)cc21 (single isomer, unassigned) [Compound 68]"
measurement_target = "Full length human CDC7 protein co-expressed with DBF4 (Homo sapiens, UniProt O00311)"
observation_type = "IC50"
reported_measurement = "> 10 nM"

[[record]]
compound = "CC(C)(C)C1(O)COCc2c1[nH]c(=O)c1sc(-c3ccncc3F)cc21 (single isomer, unassigned) [Compound 59]"
measurement_target = "Full length human CDC7 protein co-expressed with DBF4 (Homo sapiens, UniProt O00311)"
observation_type = "IC50"
reported_measurement = "≤ 1 nM"

[[record]]
compound = "CC1(O)CC(F)(F)Cc2c1[nH]c(=O)c1sc(-c3cn[nH]c3)cc21 (single isomer, unassigned) [Compound 54]"
measurement_target = "Full length human CDC7 protein co-expressed with DBF4 (Homo sapiens, UniProt O00311)"
observation_type = "IC50"
reported_measurement = "≤ 1 nM"

[[record]]
compound = "CC(C)C1(O)CCCc2c1[nH]c(=O)c1sc(-c3cn[nH]c3)cc21 (single isomer, unassigned) [Compound 88]"
measurement_target = "Full length human CDC7 protein co-expressed with DBF4 (Homo sapiens, UniProt O00311)"
observation_type = "IC50"
reported_measurement = "1 to 10 nM"

[[record]]
compound = "CC(C)C1(O)COCc2c1[nH]c(=O)c1sc(-c3ccncc3)cc21 (single isomer, unassigned) [Compound 44]"
measurement_target = "Full length human CDC7 protein co-expressed with DBF4 (Homo sapiens, UniProt O00311)"
observation_type = "IC50"
reported_measurement = "≤ 1 nM"

[[record]]
compound = "CC#CC1(O)COCc2c1[nH]c(=O)c1sc(-c3cn[nH]c3)cc21 (single isomer, unassigned) [Compound 73]"
measurement_target = "Full length human CDC7 protein co-expressed with DBF4 (Homo sapiens, UniProt O00311)"
observation_type = "IC50"
reported_measurement = "> 10 nM"


Provenance of the data: patent US20240199634A1
